target-or-test-system: human recombinant HDAC6 (Homo sapiens, UniProt Q9UBN7)
Construct: purchased Calbiochem 382180
Sequence (Q9UBN7 whole entry): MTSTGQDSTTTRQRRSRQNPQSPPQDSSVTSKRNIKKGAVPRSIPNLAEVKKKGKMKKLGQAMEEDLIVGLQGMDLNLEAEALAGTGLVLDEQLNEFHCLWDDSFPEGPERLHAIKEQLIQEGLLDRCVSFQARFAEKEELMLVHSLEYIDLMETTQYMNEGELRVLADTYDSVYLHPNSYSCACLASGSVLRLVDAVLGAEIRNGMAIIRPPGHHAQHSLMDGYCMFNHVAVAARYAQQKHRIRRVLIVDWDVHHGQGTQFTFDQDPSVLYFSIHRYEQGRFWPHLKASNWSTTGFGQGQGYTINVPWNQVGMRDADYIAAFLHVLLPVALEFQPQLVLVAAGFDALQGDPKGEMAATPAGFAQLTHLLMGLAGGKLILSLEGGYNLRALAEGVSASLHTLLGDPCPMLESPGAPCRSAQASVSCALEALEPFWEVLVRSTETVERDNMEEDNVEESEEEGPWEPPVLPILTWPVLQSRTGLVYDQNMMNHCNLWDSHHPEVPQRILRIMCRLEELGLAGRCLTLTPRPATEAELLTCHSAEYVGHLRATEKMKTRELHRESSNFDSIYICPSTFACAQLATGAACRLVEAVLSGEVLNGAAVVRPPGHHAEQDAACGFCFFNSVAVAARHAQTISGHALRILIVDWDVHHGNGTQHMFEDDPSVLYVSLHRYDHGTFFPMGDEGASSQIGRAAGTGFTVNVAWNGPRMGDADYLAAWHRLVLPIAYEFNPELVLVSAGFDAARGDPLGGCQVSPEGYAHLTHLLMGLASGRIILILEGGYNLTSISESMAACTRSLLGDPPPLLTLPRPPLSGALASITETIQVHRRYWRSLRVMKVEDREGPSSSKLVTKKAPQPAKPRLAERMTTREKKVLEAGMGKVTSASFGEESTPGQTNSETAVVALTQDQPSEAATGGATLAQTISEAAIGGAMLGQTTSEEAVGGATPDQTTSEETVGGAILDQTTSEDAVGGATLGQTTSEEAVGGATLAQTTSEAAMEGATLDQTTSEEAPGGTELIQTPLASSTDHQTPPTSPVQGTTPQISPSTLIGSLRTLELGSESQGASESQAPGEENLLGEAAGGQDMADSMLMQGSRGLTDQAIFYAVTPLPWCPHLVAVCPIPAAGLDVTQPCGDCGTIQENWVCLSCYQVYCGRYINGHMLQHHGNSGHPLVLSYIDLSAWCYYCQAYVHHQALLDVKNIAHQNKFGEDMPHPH
assay-explanation: HDAC6 enzyme activity inhibition assay (HDAC Fluorimetric Drug Discovery Kit)
Type: biochemical
measurement-conditions: human recombinant HDAC6, same protocol as HDAC1; read-out: HDAC6
quantity-measured: pIC50
Keep it numeric: pIC50 is minus log10 of the concentration in mol/L.

Known pIC50 results, listed for orientation:
smiles-notation: O=C(N1CCOCC1)N(Cc1ccc(-c2nnc(C(F)F)o2)cc1)c1ccc(F)c(Cl)c1
target-or-test-system: human recombinant HDAC6 (Homo sapiens, UniProt Q9UBN7)
pIC50: 7.70
--
smiles-notation: O=C(N1CCS(=O)(=O)CC1)N(Cc1ccc(-c2nnc(C(F)F)o2)cn1)c1ccc(Cl)cc1
target-or-test-system: human recombinant HDAC6 (Homo sapiens, UniProt Q9UBN7)
pIC50: 7.38
--
smiles-notation: COc1cccc(N(Cc2ccc(-c3nnc(C(F)F)o3)cc2)C(=O)N2CCN(C3COC3)CC2)c1
target-or-test-system: human recombinant HDAC6 (Homo sapiens, UniProt Q9UBN7)
pIC50: 6.61
--
smiles-notation: CN1CCN(Cc2ccc(N(Cc3ccc(-c4nnc(C(F)(F)F)o4)cc3F)C(=O)N3CCS(=O)(=O)CC3)cc2)CC1
target-or-test-system: human recombinant HDAC6 (Homo sapiens, UniProt Q9UBN7)
pIC50: 7.06
--
smiles-notation: O=C(N1CCS(=O)(=O)CC1)N(Cc1ccc(-c2nnc(C(F)(F)F)o2)cc1)c1ccc(-c2ccccc2)cc1
target-or-test-system: human recombinant HDAC6 (Homo sapiens, UniProt Q9UBN7)
pIC50: 6.43
--
smiles-notation: O=C(N1CCS(=O)(=O)CC1)N(Cc1ccc(-c2nnc(C(F)F)o2)cn1)c1ccc(F)c(Cl)c1
target-or-test-system: human recombinant HDAC6 (Homo sapiens, UniProt Q9UBN7)
pIC50: 7.96

Moving on to another molecule below.
Query: Bench note: what pIC50 did `Cc1noc(C2CCN(CCNC(=O)N(Cc3ccc(-c4nnc(C(F)F)o4)cc3F)c3ccccc3)CC2)n1` show?
Reply: 6.90

* * *

target-or-test-system: human recombinant HDAC6 (Homo sapiens, UniProt Q9UBN7)
Construct: purchased Calbiochem 382180
assay-explanation: HDAC6 enzyme activity inhibition assay (HDAC Fluorimetric Drug Discovery Kit)
Type: biochemical
measurement-conditions: HDAC6 over HDAC1
quantity-measured: HDAC6 selectivity (fold)
Lab book: enter the figure in fold, no units written.

Query: Bench note: what HDAC6 selectivity (fold) did `CN(C)[C@H]1CCN(C(=O)N(Cc2ccc(-c3nnc(C(F)(F)F)o3)cc2F)c2cccc(Cl)c2F)C1` show?
Reply: 74

Query: Bench note: what HDAC6 selectivity (fold) did `O=C(N1CCOCC1)N(Cc1ccc(-c2nnc(C(F)(F)F)o2)cc1)c1ccccc1F` show?
Reply: 75

Query: Bench note: what HDAC6 selectivity (fold) did `CC(C)N1CCN(C(=O)N(Cc2ccc(-c3nnc(C(F)(F)F)o3)cc2)c2ccccc2)CC1` show?
Reply: 55

* * *

target-or-test-system: human recombinant HDAC6 (Homo sapiens)
Construct: purchased Calbiochem 382180
assay-explanation: HDAC6 enzyme activity inhibition assay (HDAC Fluorimetric Drug Discovery Kit)
Assay type: biochemical
measurement-conditions: human recombinant HDAC6, same protocol as HDAC1; read-out: HDAC6
pIC50: −log10 of the molar value.
Binary call on pIC50: True from 7 upward, False beneath that.

Worked examples follow.
smiles-notation: CN1CCN(C(=O)N(Cc2ccc(-c3nnc(C(F)F)o3)cn2)c2ccc(F)cc2)CC1
assigned-label: True
--
smiles-notation: COc1ccccc1N(Cc1ccc(-c2nnc(C(F)F)o2)cc1F)C(=O)N1CCN(C)CC1
assigned-label: True
--
smiles-notation: O=C(N1CCS(=O)(=O)CC1)N(Cc1ccc(-c2nnc(C(F)(F)F)o2)cc1)c1cccc(-c2cccnc2)c1
assigned-label: False

Query: Hello, I need to know if `CN1CCN(C(=O)N(Cc2ccc(-c3nnc(C(F)F)o3)cn2)c2ccc(F)c(Cl)c2)CC1` has measured pIC50 not below 7. Thanks!
Reply: True

Query: Hello, I need to know if `O=C(N1CCOCC1)N(Cc1ccc(-c2nnc(C(F)(F)F)o2)cc1)c1ccc(C(F)(F)F)cc1` has measured pIC50 not below 7. Thanks!
Reply: False
